B1: CLINT1 (parent)
chain: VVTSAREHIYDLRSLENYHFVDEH

Variants of: B1
experiment_notes: protein stability index of a GFP-peptide fusion (GPS, HEK-293T) (PSI 1-6); higher = more stable;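 further: lentivirally expressed fusions sorted by FACS into six bins by GFP to DsRed ratio, PSI derived from sequencing read proportions per bin multiplied by bin number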
test_conditions: c terminus: a fixed tail appended
recorded_metric: protein stability index
Just the number, please, no unit after it.

{"mutant_designation": "E7M", "protein stability index": 1.39}

// switching to the query variant
Looking up `H24L` , I found its protein stability index recorded as 2.22

Just for reference, the supplement of paper PMC10567573 is where these values come from.
